meta.source: the supplement of paper PMC8149375

System: SN12C
Assay: AUC of dose-response viability curve, drug alone (arbitrary (AUC of normalised viability)); higher = less growth inhibition
Conditions: treatment: drug alone; 5 days
Checkbox rule: AUC of dose-response viability curve lower than 3 = 1.0; AUC of dose-response viability curve not lower than 3 = 0.0.

Some entries whose results are on file:
[
  {
    "Compound structure": "COc1cc2ncnc(Nc3ccc(F)c(Cl)c3)c2cc1OCCCN1CCOCC1",
    "Label value": 0.0
  },
  {
    "Compound structure": "CC(C)(C)c1nc(-c2cccc(NS(=O)(=O)c3c(F)cccc3F)c2F)c(-c2ccnc(N)n2)s1",
    "Label value": 0.0
  },
  {
    "Compound structure": "COc1ccc2c(OCc3nnc4ccc(-c5ccccc5)nn34)ccnc2c1",
    "Label value": 0.0
  },
  {
    "Compound structure": "COc1ncc(-c2ccc3nccc(-c4ccnnc4)c3c2)cc1NS(=O)(=O)c1ccc(F)cc1F",
    "Label value": 1.0
  },
  {
    "Compound structure": "COc1cc(N2CCC(N3CCN(C)CC3)CC2)ccc1Nc1ncc(Cl)c(Nc2ccccc2S(=O)(=O)C(C)C)n1",
    "Label value": 1.0
  }
]

Q) A record lists "Cc1ccc(NC(=O)c2cccc(N(C)C)c2)cc1NC(=O)c1ccc(O)cc1" . Is its AUC of dose-response viability curve below 3?
A) 0.0

Q) Given the entry "Cc1cc(Nc2cc(N3CCN(C)CC3)nc(Sc3ccc(NC(=O)C4CC4)cc3)n2)n[nH]1" , would its reported AUC of dose-response viability curve be below 3?
A) 1.0

Q) Item "COc1ccc2c(c1OC)N=C(NC(=O)c1cccnc1)N1CCN=C21" : AUC of dose-response viability curve beneath 3, strictly?
A) 1.0

----------
Tested on: 769-P
Experiment: AUC of dose-response viability curve, drug alone (arbitrary (AUC of normalised viability)); higher = less growth inhibition
Conditions: treatment: drug alone; 5 days
AUC of dose-response viability curve values for the compounds below.

Worked examples, 5 compounds total:
[
  {
    "Compound": "CCCCOc1c(C(=O)c2c(F)cc(C)cc2F)cnc2[nH]ncc12",
    "Readout": "AUC of dose-response viability curve",
    "Reading": 2.95
  },
  {
    "Compound": "COc1ncc(-c2ccc3nccc(-c4ccnnc4)c3c2)cc1NS(=O)(=O)c1ccc(F)cc1F",
    "Readout": "AUC of dose-response viability curve",
    "Reading": 1.4
  },
  {
    "Compound": "CC(=O)NCC(=O)N1[C@H]2CC[C@H]1c1cc(Nc3ncc(C(F)(F)F)c(NC4CCC4)n3)ccc12",
    "Readout": "AUC of dose-response viability curve",
    "Reading": 2.09
  },
  {
    "Compound": "COc1ccc(-c2ccc3ncc4c(c3c2)n(-c2ccc(N3CCNCC3)c(C(F)(F)F)c2)c(=O)n4C)cn1.O=C(O)/C=C\\C(=O)O",
    "Readout": "AUC of dose-response viability curve",
    "Reading": 1.22
  },
  {
    "Compound": "COc1cc(N2CCC(N3CCN(C)CC3)CC2)ccc1Nc1ncc(Cl)c(Nc2ccccc2S(=O)(=O)C(C)C)n1",
    "Readout": "AUC of dose-response viability curve",
    "Reading": 3.21
  }
]

// recorded AUC of dose-response viability curve for Cc1c(CN2CCN(C(=O)[C@H](C)O)CC2)sc2c(N3CCOCC3)nc(-c3cnc(N)nc3)nc12 [GDC-0980 (RG7422)] : 2.2

Form: compound = "O=C(NCCCNc1nc(Nc2cccc(NC(=O)N3CCCC3)c2)ncc1I)c1cccs1" ; AUC of dose-response viability curve = 3.03
